Property: kon; scope: individual binders
Target: T1, recombinant hIL4R-his (human IL-4R extracellular domain with C-terminal His tag) (human (Homo sapiens), UniProt P24394 26-232)
T1 construct: The tag was added at the C-terminus; The protein was expressed in HEK293 cells; also called huIL4R
T1 sequence: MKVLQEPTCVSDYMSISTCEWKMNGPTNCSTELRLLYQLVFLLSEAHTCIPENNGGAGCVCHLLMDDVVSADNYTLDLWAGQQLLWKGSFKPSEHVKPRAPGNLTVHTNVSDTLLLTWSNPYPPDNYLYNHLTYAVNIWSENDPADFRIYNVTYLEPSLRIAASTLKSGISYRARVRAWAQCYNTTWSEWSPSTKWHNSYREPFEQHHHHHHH
Assay: SPR Biacore X100, antibody captured by anti-human Fc, IL4R-his as analyte, 25 C
Supply the numeric figure in M⁻¹ s⁻¹, leaving out any unit text.

[[record]]
binder = "S1E6-IgG4 (antibody, V domains shown, also called monoclonal antibody S1E6) VH: EVQLVESGGGLVQPGGSLRLSCAVSGFTFSSYAMSWVRQAPGKGLEWVSSITGGGGGIYYADSVKGRFTISRDNSKNTVYLQMNSLRAEDTAVYYCAKDRISITIRPRYFGLDFWGQGTTVTVSS VL: DIVMTQSPLSLPVTPGEPASISCRSSRSVLYGNGYNYLDWYLQKSGQSPQLLIYLGTNVAAGVPDRFSGSGSGTDFTLKISRVEAEDVGFYYCMQSLRTPYTFGQGTKLEIKR"
test_value = 249000

[[record]]
binder = "L28C9-IgG4 (antibody, V domains shown, also called S1E6 light chain mutant L28C9) VH: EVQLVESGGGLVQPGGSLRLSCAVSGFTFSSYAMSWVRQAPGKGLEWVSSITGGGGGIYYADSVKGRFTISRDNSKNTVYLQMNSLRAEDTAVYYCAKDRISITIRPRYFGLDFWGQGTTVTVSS VL: DIVMTQSPLSLPVTPGEPASISCRSSQNVVYGNGYNYLDWYLQKSGQSPQLLIYLGNNVAAGVPDRFSGSGSGTDFTLKISRVEAEDVGFYYCMQSLKAPYTFGQGTKLEIKR"
test_value = 331000

[[record]]
binder = "L28F8-IgG4 (antibody, V domains shown, also called S1E6 light chain mutant L28F8) VH: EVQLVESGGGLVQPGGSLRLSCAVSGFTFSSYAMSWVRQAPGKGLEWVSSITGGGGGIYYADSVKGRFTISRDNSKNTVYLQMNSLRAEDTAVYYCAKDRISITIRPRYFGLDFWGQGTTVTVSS VL: DIVMTQSPLSLPVTPGEPASISCRSSQNVVYGNGYNYLDWYLQKSGQSPQLLIYLGTNVAAGVPDRFSGSGSGTDFTLKISRVEAEDVGFYYCMQSLQAPYTFGQGTKLEIKR"
test_value = 342000


State the recorded kon for this entry: L18D7-IgG4 (antibody, V domains shown, also called S1E6 light chain mutant L18D7) VH: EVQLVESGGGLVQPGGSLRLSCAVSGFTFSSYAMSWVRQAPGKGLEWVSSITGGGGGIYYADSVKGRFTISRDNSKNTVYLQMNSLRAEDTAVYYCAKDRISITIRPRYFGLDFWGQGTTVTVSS VL: DIVMTQSPLSLPVTPGEPASISCRSSQSLLYSIGYNYLDWYLQKSGQSPQLLIYLGSNRASGVPDRFSGSGSGTDFTLKISRVEAEDVGFYYCMQSFKAPYTFGQGTKLEIKR 297000

State the recorded kon for this entry: L28G5-IgG4 (antibody, V domains shown, also called S1E6 light chain mutant L28G5) VH: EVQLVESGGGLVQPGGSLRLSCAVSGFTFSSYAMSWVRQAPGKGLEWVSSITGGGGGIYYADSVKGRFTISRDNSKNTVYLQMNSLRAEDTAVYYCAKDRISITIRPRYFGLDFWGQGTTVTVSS VL: DIVMTQSPLSLPVTPGEPASISCRSSRNVIYGNGYNYLDWYLQKSGQSPQLLIYLGNNVAAGVPDRFSGSGSGTDFTLKISRVEAEDVGFYYCMQSLQAPYTFGQGTKLEIKR 289000

Values were extracted from patent US20220081485A1.
